Recorded minimal inhibitory concentration (MIC), Resistant, one value per entry.
# Tested on: Resistant Enterococcus faecium and faecalis
# assay_procedure: MIC, standard broth micro-dilution assay, Resistant
# Format: cell-based
# measurement_parameters: geometric mean of 4-6 isolates
Write no unit; give the number alone.

{"compound": "CC1OC(OC2c3ccc(c(Cl)c3)Oc3cc4cc(c3OC3OC(CO)C(O)C(O)C3OC3CC(C)(NCc5ccc(-c6ccccc6)cc5)C(O)C(C)O3)Oc3ccc(cc3Cl)C(O)C(NC(=O)c3ccc(-c5ccccc5)cc3)C(=O)NC(CC(N)=O)C(=O)NC4C(=O)NC3C(=O)NC2C(=O)NC(C(=O)O)c2cc(O)cc(O)c2-c2cc3ccc2O)CC(C)(N)C1O (stereo not drawn)", "study_target": "Resistant Enterococcus faecium and faecalis", "data_value": 38}
{"compound": "CC(C)CC(N)C(=O)NC1C(=O)NC(CC(N)=O)C(=O)NC2C(=O)NC3C(=O)NC(C(=O)NC(C(=O)O)c4cc(O)cc(O)c4-c4cc3ccc4O)C(OC3CC(C)(N)C(O)C(C)O3)c3ccc(c(Cl)c3)Oc3cc2cc(c3OC2OC(CO)C(O)C(O)C2OC2CC(C)(NCc3ccc(-c4ccccc4)cc3)C(O)C(C)O2)Oc2ccc(cc2Cl)C1O (stereo not drawn) [Example 27]", "study_target": "Resistant Enterococcus faecium and faecalis", "data_value": 16}
{"compound": "CC1OC(OC2c3ccc(c(Cl)c3)Oc3cc4cc(c3OC3OC(CO)C(O)C(O)C3OC3CC(C)(NCc5ccc(-c6ccccc6)cc5)C(O)C(C)O3)Oc3ccc(cc3Cl)C(O)C(NC(=O)C(CCCCNC(=O)OC(C)(C)C)NC(=O)OC(C)(C)C)C(=O)NC(CC(N)=O)C(=O)NC4C(=O)NC3C(=O)NC2C(=O)NC(C(=O)O)c2cc(O)cc(O)c2-c2cc3ccc2O)CC(C)(N)C1O (stereo not drawn) [Example 30]", "study_target": "Resistant Enterococcus faecium and faecalis", "data_value": 38}

Next, consider the following compound.
For reference, reported minimal inhibitory concentration (MIC), Resistant for CC(C)CCC(=O)NC1C(=O)NC(CC(N)=O)C(=O)NC2C(=O)NC3C(=O)NC(C(=O)NC(C(=O)O)c4cc(O)cc(O)c4-c4cc3ccc4O)C(OC3CC(C)(N)C(O)C(C)O3)c3ccc(c(Cl)c3)Oc3cc2cc(c3OC2OC(CO)C(O)C(O)C2OC2CC(C)(NCc3ccc(-c4ccc(Cl)cc4)cc3)C(O)C(C)O2)Oc2ccc(cc2Cl)C1O (stereo not drawn) stands at 3.4
